Data provenance is the supplement of paper PMC10065799.

# Target Under Test: EPHB1 (UniProt P54762)
# Sequence (P54762 whole entry, looked up): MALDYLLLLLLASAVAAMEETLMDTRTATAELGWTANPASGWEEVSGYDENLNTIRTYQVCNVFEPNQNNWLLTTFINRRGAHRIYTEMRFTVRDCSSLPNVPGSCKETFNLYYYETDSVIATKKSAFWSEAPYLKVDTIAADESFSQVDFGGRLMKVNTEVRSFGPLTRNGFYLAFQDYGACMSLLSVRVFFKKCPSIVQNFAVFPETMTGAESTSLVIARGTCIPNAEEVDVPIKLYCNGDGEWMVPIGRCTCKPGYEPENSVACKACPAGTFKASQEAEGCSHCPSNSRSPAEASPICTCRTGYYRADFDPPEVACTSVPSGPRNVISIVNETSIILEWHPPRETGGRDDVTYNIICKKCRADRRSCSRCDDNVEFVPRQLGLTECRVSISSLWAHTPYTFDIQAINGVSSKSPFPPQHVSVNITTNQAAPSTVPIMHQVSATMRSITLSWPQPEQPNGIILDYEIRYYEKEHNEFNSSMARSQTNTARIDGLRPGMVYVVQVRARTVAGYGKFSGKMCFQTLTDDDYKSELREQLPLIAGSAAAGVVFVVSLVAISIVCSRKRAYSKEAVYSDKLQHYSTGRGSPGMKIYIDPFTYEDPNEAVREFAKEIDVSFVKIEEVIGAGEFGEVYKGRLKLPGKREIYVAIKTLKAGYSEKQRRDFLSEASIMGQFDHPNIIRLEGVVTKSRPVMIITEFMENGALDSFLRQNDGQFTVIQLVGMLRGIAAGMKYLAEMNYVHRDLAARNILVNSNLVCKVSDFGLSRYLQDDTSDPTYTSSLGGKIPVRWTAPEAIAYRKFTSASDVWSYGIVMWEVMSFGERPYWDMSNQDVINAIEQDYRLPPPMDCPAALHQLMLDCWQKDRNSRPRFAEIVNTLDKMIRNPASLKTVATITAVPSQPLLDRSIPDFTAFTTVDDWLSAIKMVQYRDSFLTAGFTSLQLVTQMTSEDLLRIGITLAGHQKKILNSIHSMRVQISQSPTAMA
# Test Description: phosphorylation enrichment, bacterial display (enrichment ratio); higher = better substrate or ligand; peptides without Tyr show the background;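 note: 11-residue human phosphosite peptides and single-mutation variants displayed on the E. coli surface, counted by deep sequencing, each peptide's frequency after selection divided by its frequency in the unselected input library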;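 note: frequency after pTyr selection over input frequency; kinase dosed for 20-30% of maximal phosphorylation in three min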
Recorded phosphorylation enrichment by entry
Measurement Name: phosphorylation enrichment

- Residue Codes: "HHLSTYTKMLF [CHST8_Y251_R247H]"
  Target Under Test: "EPHB1 (UniProt P54762)"
  Recorded Measurement: 0.956
- Residue Codes: "DNPAKYFILES [DPP10_Y512]"
  Target Under Test: "EPHB1 (UniProt P54762)"
  Recorded Measurement: 0.544
- Residue Codes: "CDSSGYWTPEE [PAPPA2_Y908]"
  Target Under Test: "EPHB1 (UniProt P54762)"
  Recorded Measurement: 0.676
- Residue Codes: "VECQVYAEDPY [PCCA_Y401_R399Q]"
  Target Under Test: "EPHB1 (UniProt P54762)"
  Recorded Measurement: 0.828
- Residue Codes: "KRELRYMHSRV [ABCD1_Y281_G277R]"
  Target Under Test: "EPHB1 (UniProt P54762)"
  Recorded Measurement: 0.282
- Residue Codes: "RDMMDYMLQGV [CYP21A2_Y259]"
  Target Under Test: "EPHB1 (UniProt P54762)"
  Recorded Measurement: 1.34
- Residue Codes: "SILAVYSKDIY [PANK2_Y400_N404I]"
  Target Under Test: "EPHB1 (UniProt P54762)"
  Recorded Measurement: 0.745
- Residue Codes: "EKPAKYDDIKK [GAPDH_Y255]"
  Target Under Test: "EPHB1 (UniProt P54762)"
  Recorded Measurement: 0.441
- Residue Codes: "TINPIHEHVGF [CHN1_Y143_Y143H_YF]"
  Target Under Test: "EPHB1 (UniProt P54762)"
  Recorded Measurement: 0.321
- Residue Codes: "KPGLIYNKVNP [SPRED3_Y72_V71I]"
  Target Under Test: "EPHB1 (UniProt P54762)"
  Recorded Measurement: 0.485
- Residue Codes: "GGFSRYDEGSG [RECQL5_Y484_D480G]"
  Target Under Test: "EPHB1 (UniProt P54762)"
  Recorded Measurement: 0.431
- Residue Codes: "TLEKYYFAFPG [SLC1A1_Y51_F50Y]"
  Target Under Test: "EPHB1 (UniProt P54762)"
  Recorded Measurement: 7.36
- Residue Codes: "SGFESYGSSSY [RPA2_Y9]"
  Target Under Test: "EPHB1 (UniProt P54762)"
  Recorded Measurement: 0.341
- Residue Codes: "NTYEKYLEEEY [TF_Y669_G671E]"
  Target Under Test: "EPHB1 (UniProt P54762)"
  Recorded Measurement: 0.802

---

# Target Under Test: MERTK (UniProt Q12866)
# Sequence (Q12866 whole entry, looked up): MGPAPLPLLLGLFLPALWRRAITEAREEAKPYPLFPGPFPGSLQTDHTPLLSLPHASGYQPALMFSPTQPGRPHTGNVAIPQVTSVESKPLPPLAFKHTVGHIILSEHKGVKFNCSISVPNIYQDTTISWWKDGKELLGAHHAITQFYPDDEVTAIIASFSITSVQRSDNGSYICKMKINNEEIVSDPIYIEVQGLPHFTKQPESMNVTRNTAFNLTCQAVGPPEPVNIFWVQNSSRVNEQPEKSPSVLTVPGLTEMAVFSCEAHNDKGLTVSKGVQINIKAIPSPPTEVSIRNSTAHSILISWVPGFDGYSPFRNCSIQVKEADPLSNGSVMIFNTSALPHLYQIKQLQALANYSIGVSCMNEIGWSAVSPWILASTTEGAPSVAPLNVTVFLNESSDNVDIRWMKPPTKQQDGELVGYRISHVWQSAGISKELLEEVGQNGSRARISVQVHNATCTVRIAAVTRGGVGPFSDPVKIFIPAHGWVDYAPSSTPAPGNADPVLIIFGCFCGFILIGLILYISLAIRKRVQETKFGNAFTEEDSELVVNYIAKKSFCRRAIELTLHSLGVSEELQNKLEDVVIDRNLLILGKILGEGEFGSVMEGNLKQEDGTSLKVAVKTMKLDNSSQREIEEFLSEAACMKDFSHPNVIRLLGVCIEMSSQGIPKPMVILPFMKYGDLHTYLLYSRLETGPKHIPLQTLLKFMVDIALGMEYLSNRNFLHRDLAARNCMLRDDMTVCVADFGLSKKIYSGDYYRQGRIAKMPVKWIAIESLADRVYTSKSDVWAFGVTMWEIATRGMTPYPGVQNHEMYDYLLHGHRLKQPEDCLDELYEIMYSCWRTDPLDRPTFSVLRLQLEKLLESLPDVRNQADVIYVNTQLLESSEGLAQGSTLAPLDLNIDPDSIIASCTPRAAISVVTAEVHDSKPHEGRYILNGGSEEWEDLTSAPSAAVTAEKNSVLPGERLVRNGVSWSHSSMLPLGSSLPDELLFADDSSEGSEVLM
# Test Description: phosphorylation enrichment, bacterial display (enrichment ratio); higher = better substrate or ligand; peptides without Tyr show the background

- Residue Codes: "VKANTYENFWP [GATM_Y100_K102N_YF]"
  phosphorylation enrichment: 3.58
- Residue Codes: "PKSWNYELPAT [PROM1_Y34_A31S]"
  phosphorylation enrichment: 1.07
- Residue Codes: "SSPQLYLVPFL [TAF4_Y652_P651L]"
  phosphorylation enrichment: 7.97
- Residue Codes: "KPGVNYFFRVS"
  phosphorylation enrichment: 0.358
- Residue Codes: "DLVLQYLRVPL [F9_Y371_A366D]"
  phosphorylation enrichment: 0.404
- Residue Codes: "LQEQNYPAVDS [FAM114A1_Y115_L116P]"
  phosphorylation enrichment: 0.81
- Residue Codes: "VEDHFYEGGIG [TKT_Y564_YF]"
  phosphorylation enrichment: 0.575
- Residue Codes: "KIVQDYLEKFF [MMP8_Y36_T32I_YF]"
  phosphorylation enrichment: 0.512
- Residue Codes: "SRFQFYFQQKG [CHKB_Y381]"
  phosphorylation enrichment: 0.369
- Residue Codes: "RGFRQDAFDGK [HLA-A_Y140_YF]"
  phosphorylation enrichment: 0.559
- Residue Codes: "MRTMGYMPTEM [CABP5_Y62]"
  phosphorylation enrichment: 0.344
- Residue Codes: "FSGIFYKPESL [L2HGDH_Y103_H98Y_YF]"
  phosphorylation enrichment: 0.431
- Residue Codes: "QKLPSYILENN [VPS13B_Y2774]"
  phosphorylation enrichment: 0.529
- Residue Codes: "IHFAIYLLKYS [ARMC9_Y107]"
  phosphorylation enrichment: 0.425

---

Recorded phosphorylation enrichment by entry
# Target Under Test: Fes (UniProt P07332)
# Sequence (P07332 whole entry, looked up): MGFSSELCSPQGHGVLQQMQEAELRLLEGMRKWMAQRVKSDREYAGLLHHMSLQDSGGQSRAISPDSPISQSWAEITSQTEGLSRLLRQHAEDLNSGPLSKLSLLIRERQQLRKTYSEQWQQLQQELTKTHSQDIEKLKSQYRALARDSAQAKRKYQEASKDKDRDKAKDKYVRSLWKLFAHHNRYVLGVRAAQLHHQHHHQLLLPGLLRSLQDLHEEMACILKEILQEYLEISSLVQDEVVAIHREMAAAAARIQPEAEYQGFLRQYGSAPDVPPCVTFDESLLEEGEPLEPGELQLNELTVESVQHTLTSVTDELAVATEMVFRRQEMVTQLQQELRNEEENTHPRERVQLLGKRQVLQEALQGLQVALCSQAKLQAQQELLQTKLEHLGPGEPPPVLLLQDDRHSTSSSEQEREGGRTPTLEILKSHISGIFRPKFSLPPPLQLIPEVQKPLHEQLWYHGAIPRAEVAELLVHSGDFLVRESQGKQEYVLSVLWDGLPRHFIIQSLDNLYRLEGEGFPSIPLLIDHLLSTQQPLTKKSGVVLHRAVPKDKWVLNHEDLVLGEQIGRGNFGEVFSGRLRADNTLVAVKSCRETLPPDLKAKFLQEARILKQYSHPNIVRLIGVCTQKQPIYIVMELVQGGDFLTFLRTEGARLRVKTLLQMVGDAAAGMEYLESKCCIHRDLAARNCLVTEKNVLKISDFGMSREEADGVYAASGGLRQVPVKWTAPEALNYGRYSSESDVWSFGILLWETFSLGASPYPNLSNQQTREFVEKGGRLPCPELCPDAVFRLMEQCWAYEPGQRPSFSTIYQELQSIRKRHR
# Test Description: phosphorylation enrichment, bacterial display (enrichment ratio); higher = better substrate or ligand; peptides without Tyr show the background

- Residue Codes: "PSDLLYILDIQ [ITGA2B_Y845]"
  phosphorylation enrichment: 2.33
- Residue Codes: "PEADKYCLTYA [FGG_Y300_R301C]"
  phosphorylation enrichment: 1.2
- Residue Codes: "DAICYYRMENA [NPHS2_Y195]"
  phosphorylation enrichment: 1.44
- Residue Codes: "IYQASYYRRGD [LTK_Y676_R673Q]"
  phosphorylation enrichment: 0.695
- Residue Codes: "DFKIIYIVPMR [SNRNP200_Y540_A542V]"
  phosphorylation enrichment: 1.11
- Residue Codes: "GGFSRYDEGSG [RECQL5_Y484_D480G]"
  phosphorylation enrichment: 0.928
- Residue Codes: "AVEDQYFCVDC [FHL1_Y207_YF]"
  phosphorylation enrichment: 1.64
- Residue Codes: "MSNVPYVMNRG [ACAT1_Y161]"
  phosphorylation enrichment: 0.619
- Residue Codes: "EGTATYAAAIL [JUP_Y644_V648I]"
  phosphorylation enrichment: 0.872
- Residue Codes: "HLQDEYDFKCK [STAT1_Y170_D165H]"
  phosphorylation enrichment: 1.59
- Residue Codes: "ENEGTYVCIAA [ADAMTSL3_Y1365_T1370A]"
  phosphorylation enrichment: 1.36
- Residue Codes: "SSQTVYQRVEG [TFR2_Y23]"
  phosphorylation enrichment: 0.708
- Residue Codes: "DLITAYRAHGF [PDHA1_Y118_H113D]"
  phosphorylation enrichment: 0.756
- Residue Codes: "LRFDSYSSFCN [SLC20A2_Y433_YF]"
  phosphorylation enrichment: 1.52

---

Recorded phosphorylation enrichment by entry
# Target Under Test: MERTK (UniProt Q12866)
# Test Description: phosphorylation enrichment, bacterial display (enrichment ratio); higher = better substrate or ligand; peptides without Tyr show the background

- Residue Codes: "MSNVPYVMNRG [ACAT1_Y161]"
  phosphorylation enrichment: 0.474
- Residue Codes: "TLEKYYFAFPG [SLC1A1_Y51_F50Y]"
  phosphorylation enrichment: 11.5
- Residue Codes: "DFCDLYGGEKF [PTPN11_Y66_Y63C_YF]"
  phosphorylation enrichment: 0.54
- Residue Codes: "YNNYGYGNDGF [HNRNPH3_Y161]"
  phosphorylation enrichment: 0.759
- Residue Codes: "FAELMYTGFWH [ASS1_Y322_V321M]"
  phosphorylation enrichment: 7.12
- Residue Codes: "PDSVDYPKKGY [CTSK_Y121_R122P]"
  phosphorylation enrichment: 0.537
- Residue Codes: "KTGNIYRTEYG [MRPL3_Y265_M261T]"
  phosphorylation enrichment: 0.425
- Residue Codes: "YTNELYMMMRD [FGFR1_Y730_C725Y]"
  phosphorylation enrichment: 5.02
- Residue Codes: "SGETEYNPTEA [NBEAL2_Y2748]"
  phosphorylation enrichment: 0.562
- Residue Codes: "RRIHSYRGHLW [VHL_Y112]"
  phosphorylation enrichment: 2.69
- Residue Codes: "SILAVYSKDIY [PANK2_Y400_N404I]"
  phosphorylation enrichment: 2.91
- Residue Codes: "TCFDKYTGSTF [FN1_Y101_N104S_YF]"
  phosphorylation enrichment: 0.448
- Residue Codes: "NPQKSYFIRLY [WAS_Y83]"
  phosphorylation enrichment: 0.353
- Residue Codes: "QIGRKYKKVRF [F8_Y442_R437Q]"
  phosphorylation enrichment: 0.923

---

Recorded phosphorylation enrichment by entry
# Target Under Test: Jak2 (UniProt O60674)
# Sequence (O60674 whole entry, looked up): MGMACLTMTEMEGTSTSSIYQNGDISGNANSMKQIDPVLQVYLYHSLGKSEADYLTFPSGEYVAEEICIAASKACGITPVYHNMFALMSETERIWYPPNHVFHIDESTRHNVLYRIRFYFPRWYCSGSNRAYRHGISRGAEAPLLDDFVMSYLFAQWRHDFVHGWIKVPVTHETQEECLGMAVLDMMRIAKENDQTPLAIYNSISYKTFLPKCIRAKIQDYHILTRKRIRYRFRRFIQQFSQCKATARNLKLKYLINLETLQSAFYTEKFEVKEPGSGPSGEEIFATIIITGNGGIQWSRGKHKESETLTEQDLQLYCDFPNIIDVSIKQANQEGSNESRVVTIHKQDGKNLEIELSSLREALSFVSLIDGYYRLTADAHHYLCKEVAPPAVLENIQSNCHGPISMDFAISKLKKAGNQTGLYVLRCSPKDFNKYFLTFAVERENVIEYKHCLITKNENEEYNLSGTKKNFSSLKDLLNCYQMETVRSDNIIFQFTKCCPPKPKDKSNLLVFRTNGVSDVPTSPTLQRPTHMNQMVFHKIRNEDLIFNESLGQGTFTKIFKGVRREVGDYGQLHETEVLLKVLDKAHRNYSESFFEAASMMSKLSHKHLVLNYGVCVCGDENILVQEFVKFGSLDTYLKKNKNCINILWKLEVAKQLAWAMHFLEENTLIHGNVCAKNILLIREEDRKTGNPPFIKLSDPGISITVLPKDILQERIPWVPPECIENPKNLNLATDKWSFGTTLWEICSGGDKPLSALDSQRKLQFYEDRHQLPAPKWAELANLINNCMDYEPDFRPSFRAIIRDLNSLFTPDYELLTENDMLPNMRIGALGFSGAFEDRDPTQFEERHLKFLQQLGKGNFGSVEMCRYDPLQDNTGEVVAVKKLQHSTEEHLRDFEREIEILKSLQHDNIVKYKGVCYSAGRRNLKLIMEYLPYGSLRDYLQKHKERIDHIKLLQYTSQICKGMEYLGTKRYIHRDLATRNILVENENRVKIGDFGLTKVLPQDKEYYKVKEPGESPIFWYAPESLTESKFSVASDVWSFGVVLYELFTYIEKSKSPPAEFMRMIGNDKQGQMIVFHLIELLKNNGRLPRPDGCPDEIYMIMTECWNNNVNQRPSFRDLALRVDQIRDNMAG
# Test Description: phosphorylation enrichment, bacterial display (enrichment ratio); higher = better substrate or ligand; peptides without Tyr show the background

- Residue Codes: "QKLPSYILENN [VPS13B_Y2774]"
  phosphorylation enrichment: 1.49
- Residue Codes: "EKESCYILHSS [PATJ_Y783_E779K]"
  phosphorylation enrichment: 0.936
- Residue Codes: "QGRQTYLLQPA [DDR2_Y813_P815L]"
  phosphorylation enrichment: 0.726
- Residue Codes: "KDQGIYEDYVE [MYL6_Y86_T85I]"
  phosphorylation enrichment: 0.936
- Residue Codes: "LNPFIYSLRNC [OR1A2_Y288_W293C]"
  phosphorylation enrichment: 1.11
- Residue Codes: "YEEDSYSHIMA [FDPS_Y388]"
  phosphorylation enrichment: 1.06
- Residue Codes: "DGTGRYLCNAC [GATA5_Y208_H207R]"
  phosphorylation enrichment: 0.455
- Residue Codes: "HRLSTYTKMLF [CHST8_Y251]"
  phosphorylation enrichment: 1.22
- Residue Codes: "KTGNIYRTEYG [MRPL3_Y265_M261T]"
  phosphorylation enrichment: 0.414
- Residue Codes: "DLLMQHPKAQG [FAM83C_Y600_Y600H]"
  phosphorylation enrichment: 0.801
- Residue Codes: "KRPAVYIDEEA [EPM2A_Y304]"
  phosphorylation enrichment: 0.901
- Residue Codes: "IHFAIYLLKYS [ARMC9_Y107]"
  phosphorylation enrichment: 0.917
- Residue Codes: "KCCCIYEKPRS [PPP1R11_Y64_A69S]"
  phosphorylation enrichment: 0.642
- Residue Codes: "YCRHNYGAVES [HLA-DRB1_Y112_V114A]"
  phosphorylation enrichment: 0.739
- Residue Codes: "QRCYVYYYSYL [PTEN_Y176_R173C]"
  phosphorylation enrichment: 4.07
- Residue Codes: "VSRGRYRPQEC [B4GALT4_Y113]"
  phosphorylation enrichment: 0.655
- Residue Codes: "TINPIHEHVGF [CHN1_Y143_Y143H_YF]"
  phosphorylation enrichment: 0.429
- Residue Codes: "SKHRLYSDLQT [PTCHD1_Y84]"
  phosphorylation enrichment: 0.406
- Residue Codes: "LEFGDCHPLKP [VPS35L_Y32_Y32C]"
  phosphorylation enrichment: 1.16
- Residue Codes: "FISVGYVDDTL [HLA-B_Y51_Q56L]"
  phosphorylation enrichment: 1.03
- Residue Codes: "SILTVYSKDNF [PANK2_Y400_A398T_YF]"
  phosphorylation enrichment: 0.907
- Residue Codes: "NFSKMYCNPDA [KNL1_Y489_A486S_YF]"
  phosphorylation enrichment: 0.894
- Residue Codes: "KPGLIYNKVNP [SPRED3_Y72_V71I]"
  phosphorylation enrichment: 0.722
- Residue Codes: "VECQVYAEDPY [PCCA_Y401_R399Q]"
  phosphorylation enrichment: 1.28
- Residue Codes: "EESREYDRLFE [PIK3R1_Y463_K459E_YF]"
  phosphorylation enrichment: 1.48
- Residue Codes: "KVKSIYFHTQG [AR_Y916_P914S]"
  phosphorylation enrichment: 0.614
- Residue Codes: "FGCTFYNQAIM [MCCC2_Y196_R193C]"
  phosphorylation enrichment: 1.32
- Residue Codes: "FGMQLYQNFMH [GRB14_Y347_YF]"
  phosphorylation enrichment: 0.971
- Residue Codes: "FGVVGYLAIMF [RNF175_Y155]"
  phosphorylation enrichment: 1.45
